Consider the following compounds; for each one, report its IC50.
Target under test: G6PD (Homo sapiens, UniProt P11413)
Sequence (P11413 28-515): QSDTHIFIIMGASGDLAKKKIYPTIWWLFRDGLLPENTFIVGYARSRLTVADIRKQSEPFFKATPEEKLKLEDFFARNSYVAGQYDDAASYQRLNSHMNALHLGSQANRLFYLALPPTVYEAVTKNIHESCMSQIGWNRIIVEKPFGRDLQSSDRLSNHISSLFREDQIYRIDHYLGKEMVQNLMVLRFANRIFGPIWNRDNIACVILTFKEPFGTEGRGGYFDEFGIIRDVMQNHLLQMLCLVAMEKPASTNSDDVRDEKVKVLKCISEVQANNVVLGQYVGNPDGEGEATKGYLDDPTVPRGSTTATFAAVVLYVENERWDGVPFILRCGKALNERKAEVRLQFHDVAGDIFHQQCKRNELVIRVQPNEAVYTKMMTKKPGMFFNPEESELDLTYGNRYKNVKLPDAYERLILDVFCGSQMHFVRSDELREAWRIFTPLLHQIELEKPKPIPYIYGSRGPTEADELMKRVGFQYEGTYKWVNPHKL
Assay details: G6PD enzymatic activity by diaphorase-coupled assay
Condition details: Normalized in vitro IC50, Table 1A; diaphorase-coupled biochemical assay, normalization to an intraplate control

Query :: Respond only with IC50 recorded for CC(C)c1ccc(Nc2ncc3c(n2)CCCCC3=O)cc1
Result :: 1 to 1000 µM

Query :: Fill in reported IC50 for this entry: O=C1CCCCc2nc(Nc3ccc(F)cc3)ncc21
Result :: 1 to 1000 µM

Query :: # return recorded IC50 for input COc1ccc(Oc2cc(C#N)cc(Nc3ncc4c(n3)CCCCC4=O)c2)cc1
Result :: 1 to 1000 µM

Query :: Identify IC50 associated with the compound N#CCc1cccc(Nc2ncc3c(n2)CCCCC3=O)c1
Result :: 1 to 1000 µM

Query :: Note IC50 for the compound shown: O=C1CCCCc2nc(Nc3ccc(Cl)cc3)ncc21
Result :: 1 to 1000 µM

Query :: For the compound COC(=O)c1ccc(Nc2ncc3c(n2)CCCCC3=O)cc1 , give its reported IC50.
Result :: 1 to 1000 µM

Query :: Please give the documented IC50 of O=C1CCCCc2nc(Nc3ccc(C(F)(F)F)cc3)ncc21
Result :: 1 to 1000 µM

Query :: Tell me its IC50 given NS(=O)(=O)c1ccc(Nc2ncc3c(n2)CCCCC3=O)cc1 as the entry.
Result :: 1 to 1000 µM

Query :: Read off the recorded IC50 for Cc1ccc(Nc2ncc3c(n2)CCCCC3=O)cc1
Result :: 1 to 1000 µM

Query :: Specify measured IC50 for N#CCc1ccc(Nc2ncc3c(n2)CCCCC3=O)cc1 .
Result :: 1 to 1000 µM

Query :: Hello, please tell me recorded IC50 for this one: O=C1CCCCc2nc(Nc3cccc(Cl)c3)ncc21
Result :: < 1 µM

Query :: Supply measured IC50 of O=C1CCCCc2nc(Nc3ccc(Br)cc3)ncc21 in your reply.
Result :: 1 to 1000 µM

Query :: Answer with the recorded IC50 for the compound listed here: N#Cc1ccc(Nc2ncc3c(n2)CCCCC3=O)cc1
Result :: 1 to 1000 µM

Query :: Give IC50 for O=C1CCCCc2nc(Nc3ccc(I)cc3)ncc21
Result :: 1 to 1000 µM

Query :: Return IC50 (reported value) for this compound: O=C1CCCCc2nc(Nc3ccc(B(O)O)cc3)ncc21
Result :: 1 to 1000 µM

Query :: Given O=C1CCCCc2nc(Nc3ccc(SC(F)(F)F)cc3)ncc21 , respond with its IC50.
Result :: 1 to 1000 µM

Query :: Note down IC50 recorded for O=C1CCCCc2nc(Nc3ccccc3)ncc21
Result :: 1 to 1000 µM

Query :: Provide only the value of recorded IC50 for O=C1CCCCc2nc(Nc3ccccc3Cl)ncc21
Result :: 1 to 1000 µM

Query :: Report measured IC50; entry is COc1ccc(Nc2ncc3c(n2)CCCCC3=O)cc1C#N
Result :: < 1 µM

Query :: Could you please provide reported IC50 for CCc1ccc(Nc2ncc3c(n2)CCCCC3=O)cc1 ? Thanks!
Result :: 1 to 1000 µM

Query :: Indicate its recorded IC50; the compound in question is CC(=O)Nc1ccc(Nc2ncc3c(n2)CCCCC3=O)cc1
Result :: > 1000 µM

Query :: Provide measured IC50 value, entry: O=C(c1ccccc1)c1cc(Cl)cc(Nc2ncc3c(n2)CCCCC3=O)c1
Result :: 1 to 1000 µM

Query :: Return the recorded IC50 value; entry: O=C1CCCCc2nc(Nc3ccc([N+](=O)[O-])cc3)ncc21
Result :: 1 to 1000 µM

Query :: Return IC50 (reported value) for this compound: O=C1CCCCc2nc(Nc3ccccc3F)ncc21
Result :: 1 to 1000 µM

Query :: Report IC50 for COc1ccc(Nc2ncc3c(n2)CCCCC3=O)cc1
Result :: 1 to 1000 µM

Query :: Read off the recorded IC50 for N#Cc1cc(Nc2ncc3c(n2)CCCCC3=O)cs1
Result :: < 1 µM

Where these numbers come from: patent US20230348401A1
